- MEASURED_TARGET: T1, Transforming growth factor β1 (UniProt P01137 279-390)
- T1 construct: also called TGFβ1; TGFβ
- T1 sequence (P01137 279-390 limits assumed): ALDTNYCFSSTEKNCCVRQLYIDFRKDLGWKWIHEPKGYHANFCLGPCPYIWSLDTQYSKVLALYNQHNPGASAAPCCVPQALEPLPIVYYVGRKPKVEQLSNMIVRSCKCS
- PROCEDURE_DETAILS: BioVeris ECL competition with a labeled competitor; legend: ++ = IC50 about 10-50 µM
pIC50: −log10 of the molar value.
MEASURED_ENDPOINT: pIC50

Task: Given PEN3-Q-BBIt-TGFβ1 (designed binder, also called BBIt-PEN3-Q-A13I-L29P-F50T-V52A) DPDDESSKPCCDQCICTKSNPPQCRCSDMRPNSCHSACKSCACPENINVLPCTCADITDFCYEPCKPSE , state its recorded pIC50.
Output: 4.30 to 5.00

Task: Need pIC50 of MM021W-Q-BBIt-TGFβ1 (designed binder, also called MM0212-Q-BBIt-TGF; BBIt-MM021W-Q-A13I-L29P-F50T-V52A) DPDDESSKPCCDQCICTKSNPPQCRCSDMRPNSCHSACKSCACKHNVDWLCTCADITDFCYEPCKPSE , thanks.
Output: 4.30 to 5.00

Task: Quick one: pIC50 for WTQ-Q-BBIt-TGFβ1 (designed binder, also called BBIt-WTQ-Q-A13I-L29P-F50T-V52A) DPDDESSKPCCDQCICTKSNPPQCRCSDMRPNSCHSACKSCACWTQHIHNCTCADITDFCYEPCKPSE ?
Output: 4.30 to 5.00
